Taken from PubChem BioAssay (NCATS).

tested on: MKL-2; assay: qHTS assay to identify novel small-molecules to repurpose for Merkel cell carcinoma treatment (AID 1296009); settings: MCC and control cell lines, CellTiter-Glo viability, 72 h; series mostly up to 46 µM; further: nearly all actives have a fitted effect of over 60% in size
Results filed as inconclusive are left out. Activity calls are given as the source filed them. The call rests on the fitted dose curve; in most records, active means well fitted inhibition curve with a large enough effect; inconclusive means small, poorly fitted or top-dose-only effect; inactive means flat fitted curve, though single readings scatter.
Your reply should match one of these outcome classes. 1 = active, 0 = inactive

// below: answered compounds
Please share the test call associated with Nc1ccncc1 .
0

Please share the test call associated with Cc1ccc(-c2nc3ccc(C)cn3c2CC(=O)N(C)C)cc1 .
0

Please share the test call associated with NCCc1cc(O)c(O)cc1O .
0

Others:
Please share the test call associated with Cc1cccc(C)c1NC(=O)CN1CCCC1=O .
0

Please share the test call associated with CCC(COC(=O)c1cc(OC)c(OC)c(OC)c1)(c1ccccc1)N(C)C (stereo not given) .
0

Please share the test call associated with Cc1ncc(CNC(=O)N(CCCl)N=O)c(N)n1 .
0

Please share the test call associated with CC1=C2C[C@@H]3[C@@H](CC=C4C[C@@H](O)CC[C@@]43C)[C@@H]2CC[C@]12O[C@H]1C[C@H](C)CN[C@H]1[C@H]2C .
0

Please share the test call associated with COc1ccc(C(=O)c2c(C)n(CCN3CCOCC3)c3ccccc23)cc1 .
0

Please share the test call associated with C=C1C[C@@H]2[C@H](CC[C@]3(C)C(=O)CC[C@@H]23)[C@@]2(C)C=CC(=O)C=C12 .
1

Please share the test call associated with Cc1ccc2c(c1)C1CN(C)CCC1N2 (stereo not given) .
0

Please share the test call associated with C=C1CC[C@@]2(O)[C@H]3Cc4ccc(O)c5c4[C@@]2(CCN3CC2CC2)[C@H]1O5 .
0
